experiment: Franz cell porcine skin permeation and deposition of zinc from solutions; format: in vitro ADME; conditions: 1 mL PG solution, 24 h
outcome-measure: transdermal permeation of elemental zinc (µg/cm^2)

item-smiles | value-reported
CCc1occc(=O)c1[O][Zn][O]c1c(CC)occc1=O | 4.85

----------
Listed next: entries and their corresponding Solubility of complex (visual).
assay: Solubility of iron chloride hexahydrate and iron complexes (visual / assayed); assay type: physicochemical; details: PEG400; visual (*)
outcome-measure: Solubility of complex (visual)

molecule | value-reported
O=c1cc(CO)occ1[O-].O=c1cc(CO)occ1[O-].O=c1cc(CO)occ1[O-].[Fe+3] [Iron kojic, iron kojic acid] | <6 mg/mL Iron kojic*
CCc1occc(=O)c1[O-].CCc1occc(=O)c1[O-].CCc1occc(=O)c1[O-].[Fe+3] [Iron ethyl maltol made at pH 7.4, iron ethyl maltol] | <8 mg/mL Iron
Cc1occc(=O)c1[O-].Cc1occc(=O)c1[O-].Cc1occc(=O)c1[O-].[Fe+3] [Iron maltol made at pH 1.6, iron maltol] | <6 mg/mg/mL
Cc1occc(=O)c1[O-].Cc1occc(=O)c1[O-].Cc1occc(=O)c1[O-].[Fe+3] [Iron maltol made at pH 7.4, iron maltol] | <20 mg/mg/mL
